Test system: FXR:RXRa (NR concentration 270 nM, RXRa partner concentration 90 nM)
assay-procedure: PBM binding z-score (relative to random genomic background probes); higher = stronger binding; sequences stand for … in GC…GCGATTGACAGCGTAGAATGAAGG
For each entry below, report its PBM binding z-score value.
Answer with a number only.

*Q* Bench note: what PBM binding z-score did `CCGAGTAGGTTATGGGGCATTCAAGCAACGGTGA` show?
*A* 0.071

*Q* Same for `AGAAGGAGGTTAAGATCAGGGAAACAGAATACAT`
*A* 1.65

*Q* Same for `CCTCGGAGGACAGCAGGTCAGAGCTGTCCGCTTT`
*A* 0.494

*Q* Same for `AGTCAAAGTTCACTAGGTACCGTAAGATTCAGCT`
*A* 4.67

*Q* Same for `CCTAGCAGGCCAATCTGGGTCCCTCAAGGCTTGA`
*A* -0.114

*Q* Same for `GGAACGAGGGCAAAGCTGATAGCATCTGTCGACG`
*A* 0.392

Sourced from the supplement of paper PMC6555819
